Assay: protease stability score; higher = more stable; yeast display proteolysis, trypsin and chymotrypsin;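 also: relative to predicted unfolded state with 0 unfolded-like and 1 meaning tenfold more protease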

{"record_sequence": "SEDEKENREWKRLLIEAHMTGDEHFLSRQLDPNVLVIVNGQEKVGREEAERELKEWLDKVKGLRIRRFDTESEEFVDGRLHSNLKLDGIINGRRTELDIHVISVKIDGQWQIRQIFFV", "protease stability score": 1.44}
{"record_sequence": "DEETKELEEIMKFYISAFRTGDWRLIEELADPNVRLNVDGREFHGREQFLKHFREELEHLGIDHVHVDHIDIQGEKLIIRLTIHVDGREIHNILILIIVNGRLHEVKWIRV", "protease stability score": 1.58}
{"record_sequence": "DEYKRDADEVIRLWAEAMETGDEKLFLELFDPDTRSIFNGVELHGRQDIEMWRNRYDHVRHVRTEVEDSHIYNGRVEDHVRLILDVEVNGQREHHSHEILVYSVKFDGRWHFTMVEIR", "protease stability score": 0.607}
{"record_sequence": "DEEEEETHEYMRLLVRLFLTGDEEVFDRLADPNRRLKWNGREYHGREQTNRVWRELGVKHRRIEDIKMQGDKVVIEGTVHIGDKTLRTTVSFVIIDGRTKSIEIRDI", "protease stability score": 1.46}
{"record_sequence": "STEEEELRDYLEILDHLWKTGDFDRLLNLIDPHVRLEVNGREHHGMRWFETIIRKLGHDNISVHINNEKVHIVDGRAHWEGKKILIYDGRFHDFHTHLFFLKIDGKWKLKEVEYH", "protease stability score": 1.26}
{"record_sequence": "DTEEEILKQYLELLRRQHATGDEDSIKHLVDPNVRNDVNGVDIHGRDRMREWIERHRHNLGIDHIEIRITDLHIIDGRIHLDVRVFYRVDGRTIHMEIYVVLVKVDGRWSVKSRHLH", "protease stability score": 0.911}

====

Assay: protease stability score; higher = more stable; yeast display proteolysis, trypsin and chymotrypsin;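 also: relative to predicted unfolded state with 0 unfolded-like and 1 meaning tenfold more protease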

{"record_sequence": "SEEEKLSRELSKLILHYLHTGDWDQITELADPNVRIHDTINGRDNDNHGWEMLIALMEQLGVDVRRFHHIRVIGDKVHMEVELNFNGRTVHAEWTFKVVDGRMKSIEIRTK", "protease stability score": 1.34}
{"record_sequence": "SEEEEHIREHSERFIEAWKTGDWEELSRMIDPHARIVVNGKEVHGRSDIERMLRETMEKMGANHIQEESVHYQGNKIILHETVNVGDKRLRLTIVIHVVNGKVRRVEFHIEQR", "protease stability score": 2.17}
{"record_sequence": "DEDERDTRLALEELLRVSRTGNEHDHHRLVDPHVRMEINGRELHGWEVLVRLMHRYDHQELRVREVRVIGDKIDVDTENIVNFNGVEIVLETSIVARKIDGRWLIHSIHIG", "protease stability score": 1.23}
{"record_sequence": "SEIEEESEEHLNLYMHAMHTGDWHTLERLADPNVRMDVNGQEHHGREEFVKVLVHMIEHLGIDHVRVKHLDLQGDKLHADTTEEVNGRRIHTILDVTKINGRWFITSLEIH", "protease stability score": 0.495}
{"record_sequence": "EEDEEITKLYLEIILHIWLTGNEEELLRMFDPNARVDINGVINIGREDLLKRFHEHWRKYGAKHIRVRDIKFHIFNGVIYINLHLELIVGDKTFHVHLHMRSRKVDGRWHTHEFEERIN", "protease stability score": 1.69}
{"record_sequence": "DEEDEDIHRLFHELVEALLTGDERTLLRLIDPHARLIIGDKHFHGRELIVKIIYEMLRELRVHSINMHHIDVIGEKVVLDVHIHVEQGDKHRIIRVNIISKKIDGRWLIKSIKVH", "protease stability score": 1.16}
